Data origin: ChEMBL document CHEMBL1129380

TGT: Aldo-keto reductase family 1 member B1 (Bos taurus)
ASSAY NOTES: Evaluated for inhibition of Aldose reductase 2
READOUT: inhibition (%)

Some compounds with known inhibition results, for comparison:
COMPOUND STRUCTURE	inhibition (%)
O=C(O)Cn1nc2c(c(C(=O)O)c1=O)Cc1ccccc1-2	32.4
O=C(O)c1c(O)nnc2c1CCc1ccccc1-2	9.9
O=C(O)Cn1nc2c(cc1=O)Cc1ccccc1-2	35.8
O=C(O)Cn1nc2c(c(C(=O)O)c1=O)CCCc1ccccc1-2	12.1

P: O=C(O)c1c2c(n[nH]c1=O)-c1ccccc1CCC2
Q: O=C(O)c1c(O)nnc2c1Cc1ccccc1-2
Challenge: Just tell me: smaller inhibition value, P or Q ? Label of pick, please.
Response given: Q

====

Species on record: Bos taurus
ASSAY NOTES: Inhibition of Aldehyde reductase 1
Parameters: concentration or dose not given beside the values
EXPERIMENTAL SETUP: concentration not given here
READOUT: inhibition (%)

Recorded results for 2 compounds are shown here.
COMPOUND STRUCTURE	inhibition, %
O=C(O)CCn1nc2c(cc1=O)CCc1ccccc1-2	32.7
COc1cc2c(cc1OC)-c1nn(CCCC(=O)O)c(=O)cc1CC2	10.1

I: Cc1cc(C)c2c(c1)-c1nn(CCCC(=O)O)c(=O)cc1CC2
II: O=C(O)Cn1nc2c(c(C(=O)O)c1=O)CCCc1ccccc1-2
III: O=C(O)c1c(O)nnc2c1Cc1ccccc1-2
IV: COc1cc2c(cc1OC)-c1nn(CC(=O)O)c(=O)cc1C2
Challenge: Arrange the 4 compounds from largest to smallest inhibition. Output spec: a listing of the labels in the requested order.
Response given: IV, I, II, III

====

pIC50: −log10 of the molar value.
System: Aldo-keto reductase family 1 member B1 (Bos taurus) | Read-out: pIC50
READOUT: pIC50

COMPOUND	pIC50
O=C(O)Cn1nc2c(c(C(=O)O)c1=O)CCc1ccccc1-2	4.48

P: Cc1cc(C)c2c(c1)-c1nn(CCCC(=O)O)c(=O)cc1CC2
Q: COc1cc2c(cc1OC)-c1nn(CCCC(=O)O)c(=O)cc1CC2
Challenge: Pick one, P or Q : lowest reported pIC50. Please respond with the label that marks your chosen entry.
Response given: P
(P: 4.76, Q: 5.12)

====

Species: Bos taurus
ASSAY NOTES: Inhibition of Aldehyde reductase 1
Set-up: concentration or dose not given beside the values
EXPERIMENTAL SETUP: concentration not given here
READOUT: inhibition (%)

Worked set:
COMPOUND	inhibition / %
Cc1cc(C)c2c(c1)C1=NN(CC(=O)O)C(=O)CC1CC2 (stereo unspecified)	21.8
O=C(O)c1c2c(n[nH]c1=O)-c1ccccc1CCC2	6.8
O=C(O)c1c(O)nnc2c1CCc1ccccc1-2	8.3
COc1cc2c(cc1OC)-c1nn(CC(=O)O)c(=O)cc1CC2	11.3

A: O=C(O)Cn1nc2c(cc1=O)CCCc1ccccc1-2
B: COc1cc2c(cc1OC)-c1nn(CCC(=O)O)c(=O)cc1CC2
Challenge: Lowest inhibition? choose A or B Give the label under which the chosen entry appears.
Response given: B

====

Parameter 'readout' = IC50; parameter 'system' = Aldo-keto reductase family 1 member B1 (Bos taurus).
READOUT: IC50 (µM)

COMPOUND	TGT	IC50 (µM)
O=C(O)Cn1nc2c(cc1=O)CCc1ccccc1-2	Aldo-keto reductase family 1 member B1 (Bos taurus)	12.6
Cc1cc(C)c2c(c1)-c1nn(CCC(=O)O)c(=O)cc1CC2	Aldo-keto reductase family 1 member B1 (Bos taurus)	51.5

A: O=C(O)CCCn1nc2c(cc1=O)CCc1ccccc1-2
B: Cc1cc(C)c2c(c1)C1=NN(CC(=O)O)C(=O)CC1CC2 (stereo not given)
C: Cc1cc(C)c2c(c1)-c1nn(CC(=O)O)c(=O)cc1CC2
Challenge: # rank by IC50, ascending (min first) Write out the labels following the order that was asked for.
Response given: C, A, B
(C: 6.44 µM, A: 11.4 µM, B: 63.5 µM)
